experimental_context: 293.15 K; 101.33 kPa; Liquid; Cone and plate viscometry
endpoint_label: log10 of viscosity (log10 of the value in mPa·s)
Values are log10 of viscosity in mPa·s.

# input Quick check: log10 of viscosity of CCCCCCCCCCCCCC[P+](CCCCCC)(CCCCCC)CCCCCC.O=S(=O)([N-]S(=O)(=O)C(F)(F)F)C(F)(F)F ?
# output 2.63

----------
experimental_context: 288.15 K; 101.33 kPa; Liquid; Cone and plate viscometry
endpoint_label: viscosity (mPa·s)
Form entry: value (mPa·s) — number only.

INSERT INTO results (compound, obs_value) VALUES
  ('CCCCCCCCCCCCCC[P+](CCCCCC)(CCCCCC)CCCCCC.Clc1nc[n-]c1Cl [trihexyl(tetradecyl)phosphonium 4,5-dichloroimidazolide]', 1680),
  ('CC[P+](CC)(CC)COCCOC.O=[N+]([O-])c1cn[n-]c1', 156),
  ('CCCCCCCCSC(N(C)C)=[N+](C)C.O=S(=O)([N-]S(=O)(=O)C(F)(F)F)C(F)(F)F', 186),
  ('CCC[n+]1ccn(C)c1C.O=[N+]([O-])c1cn[n-]c1 [1,2-dimethyl-3-propylimidazolium 4-nitropyrazolide]', 2270),
  ('CCCCCCCCCCCCCC[P+](CCCCCC)(CCCCCC)CCCCCC.O=[N+]([O-])c1c[n-]cn1 [trihexyl(tetradecyl)phosphonium 4-nitroimidazolide]', 1500);

# input Entry CC(=O)[O-].CCCCCCCCCCCCCC[P+](CCCCCC)(CCCCCC)CCCCCC [trihexyl(tetradecyl)phosphonium acetate] has what viscosity?
# output 814

# input Then CCCCCCCC[P+](CC)(CC)CC.O=S(=O)([N-]S(=O)(=O)C(F)(F)F)C(F)(F)F [triethyloctylphosphonium bis(trifluoromethylsulfonyl)imide] ?
# output 194

The measured values listed here are drawn from the NIST ThermoML archive (doi:10.1021/acs.jced.6b00269).
